target: DRB1*1501 (Homo sapiens, UniProt P01903+P01911); assay: biochemical; assay type: binding
Entries annotated with measured IC50
Report the value in µM with no unit label.

molecule	IC50 (µM)
CSCC[C@H](NC(=O)[C@@H](NC(=O)[C@H](Cc1ccccc1)NC(=O)[C@H](CCCNC(=N)N)NC(=O)[C@H](CC(N)=O)NC(=O)[C@H](CC(C)C)NC(=O)[C@H](CC(C)C)NC(=O)[C@H](CC(C)C)NC(=O)[C@H](CCCNC(=N)N)NC(=O)[C@H](CO)NC(=O)[C@@H](NC(=O)[C@@H](N)CCSC)C(C)C)[C@@H](C)O)C(=O)N[C@H](C(=O)N[C@@H](Cc1c[nH]cn1)C(=O)N[C@@H](CCCNC(=N)N)C(=O)N[C@@H](CCCNC(=N)N)C(=O)O)[C@@H](C)O [NS5 233-248]	0.307
CC(C)C[C@H](NC(=O)[C@H](C)NC(=O)[C@H](CC(C)C)NC(=O)[C@@H]1CCCN1)C(=O)N[C@@H](CCCCN)C(=O)N[C@@H](CCC(=O)O)C(=O)N[C@@H](Cc1ccccc1)C(=O)N[C@@H](CCCCN)C(=O)N[C@@H](CC(=O)O)C(=O)N[C@@H](Cc1ccccc1)C(=O)N[C@@H](C)C(=O)N[C@@H](C)C(=O)NCC(=O)N[C@@H](CCCNC(=N)N)C(=O)N[C@@H](CCCCN)C(=O)O [NS3 605-619]	0.028

Continue with the molecule presented below.
Entry CC[C@H](C)[C@H](NC(=O)[C@H](CCC(=O)O)NC(=O)CNC(=O)[C@@H](NC(=O)[C@@H](NC(=O)[C@@H](NC(=O)[C@H](CCC(N)=O)NC(=O)[C@H](Cc1ccccc1)NC(=O)[C@@H](NC(=O)CNC(=O)[C@@H]1CCCN1C(=O)[C@H](CCSC)NC(=O)[C@@H](NC(=O)[C@H](CCC(N)=O)NC(=O)[C@@H](N)Cc1ccccc1)[C@@H](C)O)[C@@H](C)O)[C@@H](C)O)[C@@H](C)O)[C@@H](C)O)C(=O)O [NS3 109-123] ; IC50 = 2.18

###

molecular target: DRB1*0901 (Homo sapiens, UniProt P01903+P01911, A100R/A103E/D57H/D86V/F55Y/F60I/F76Y/I96F/K127E/L162R/M171V/P40D/Q125H/Q99R/R33Q/R42F/S133A/S66N/T210M/V115G/W38K/Y107V/Y59G/Y89S); test: biochemical; assay type: binding; conditions: competitive inhibition of radiolabeled standard peptide; '-' distinct from ND; read-out: Binding Affinity (nM) DRB1*0901
Where no end group is shown, it is not given here.
metric-name: IC50 (nM)
Answer in nM, number only, no unit symbol.

Recorded IC50 (sequence EGKVVQYENLKYTVI [Envelope 126-140] ): 3860

###

target: DRB4*0101 (Homo sapiens, UniProt P01903+P13762, G164S); assay: biochemical
pIC50: −log10 of the molar value.
Class assignment keyed on pIC50, ranges Low = under 5, Medium = from 5 up to 6, High = 6 and over

These solved cases illustrate the format of a correct answer.
structure	label-class
CSCC[C@H](NC(=O)[C@H](Cc1ccc(O)cc1)NC(=O)[C@H](CCCNC(=N)N)NC(=O)[C@H](CC(C)C)NC(=O)[C@@H]1CCCN1C(=O)[C@@H]1CCCN1C(=O)[C@H](CC(C)C)NC(=O)[C@@H](NC(=O)[C@H](CS)NC(=O)[C@H](CO)NC(=O)[C@H](CCCNC(=N)N)NC(=O)[C@@H](N)CS)[C@@H](C)O)C(=O)NCC(=O)N[C@@H](CCC(=O)O)C(=O)N[C@@H](CC(=O)O)C(=O)O	High
CC[C@H](C)[C@H](NC(=O)[C@H](CS)NC(=O)[C@H](Cc1ccccc1)NC(=O)[C@H](CCC(N)=O)NC(=O)[C@@H](N)CC(N)=O)C(=O)N[C@@H](CCCCN)C(=O)N[C@H](C(=O)N[C@@H](CC(C)C)C(=O)N[C@@H](CC(N)=O)C(=O)N1CCC[C@H]1C(=O)N[C@@H](Cc1ccc(O)cc1)C(=O)N[C@@H](CCSC)C(=O)N1CCC[C@H]1C(=O)N[C@H](C(=O)N[C@H](C(=O)N[C@H](C(=O)N[C@@H](CCC(=O)O)C(=O)O)[C@@H](C)CC)C(C)C)[C@@H](C)O)C(C)C	Medium
CC[C@H](C)[C@H](N)C(=O)N[C@H](C(=O)NCC(=O)N[C@H](C(=O)N[C@@H](CC(C)C)C(=O)N[C@@H](CCC(=O)O)C(=O)N[C@@H](CCC(N)=O)C(=O)NCC(=O)N[C@@H](CCCCN)C(=O)N[C@@H](CCCNC(=N)N)C(=O)N[C@H](C(=O)N[C@@H](CC(C)C)C(=O)N[C@H](C(=O)N1CCC[C@H]1C(=O)N[C@@H](CCC(N)=O)C(=O)O)[C@@H](C)O)[C@@H](C)O)C(C)C)[C@@H](C)CC	Medium

Task: Just checking, what class would you give CC[C@H](C)[C@H](NC(=O)[C@H](C)NC(=O)CNC(=O)[C@@H](NC(=O)[C@H](CCC(=O)O)NC(=O)CN)[C@@H](C)CC)C(=O)N[C@@H](C)C(=O)N[C@@H](CC(C)C)C(=O)N[C@@H](CC(=O)O)C(=O)N[C@@H](Cc1ccccc1)C(=O)N[C@@H](CCCCN)C(=O)N1CCC[C@H]1C(=O)NCC(=O)N[C@H](C(=O)N[C@@H](CO)C(=O)O)[C@@H](C)O here?
Result: High

Task: State the class of the compound shown: CC[C@H](C)[C@H](NC(=O)[C@H](CCSC)NC(=O)[C@H](CO)NC(=O)[C@H](CO)NC(=O)[C@H](C)NC(=O)[C@H](CO)NC(=O)CNC(=O)[C@@H](NC(=O)[C@H](C)NC(=O)[C@H](CCCCN)NC(=O)[C@@H](NC(=O)[C@H](CCC(=O)O)NC(=O)[C@H](Cc1ccc(O)cc1)NC(=O)[C@H](CO)NC(=O)CN)C(C)C)[C@@H](C)O)C(=O)N[C@@H](CC(N)=O)C(=O)NCC(=O)O
Result: Medium

Task: State the class of the compound shown: CC(C)C[C@H](NC(=O)[C@H](CCCNC(=N)N)NC(=O)[C@H](CCCCN)NC(=O)[C@@H]1CCCN1C(=O)[C@H](CO)NC(=O)[C@H](CC(=O)O)NC(=O)[C@H](C)NC(=O)[C@H](CCC(N)=O)NC(=O)[C@H](Cc1ccccc1)NC(=O)[C@H](CCCCN)NC(=O)[C@H](Cc1ccc(O)cc1)NC(=O)[C@H](CCC(N)=O)NC(=O)[C@H](CCC(=O)O)NC(=O)[C@@H](N)[C@@H](C)O)C(=O)N[C@@H](C)C(=O)O
Result: Low

###

biological target: DRB1*1302 (Homo sapiens, UniProt P01903+P01911, A100E/A169T/K41T/L162R/M171V/P40S/Q125H/Q178H/Q39Y/Q99D/R42S/S66N/T262R/V115G/W38E/Y61H); assay: biochemical; format: binding; details: competitive inhibition of radiolabeled standard peptide; DRB1*1302; read-out: Binding Affinity (nM) DRB1*1302
Sequence (P01903 26-254 limits assumed, other chains not shown): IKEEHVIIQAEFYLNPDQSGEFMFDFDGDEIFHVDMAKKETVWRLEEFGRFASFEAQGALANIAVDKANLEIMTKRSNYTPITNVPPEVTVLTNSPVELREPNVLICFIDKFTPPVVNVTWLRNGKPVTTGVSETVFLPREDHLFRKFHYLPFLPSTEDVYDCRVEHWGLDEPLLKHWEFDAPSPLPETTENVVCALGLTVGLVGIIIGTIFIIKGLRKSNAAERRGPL
# IC50 annotations
# number only, unit nM dropped from output

structure	metric-name	readout-unit	observed-value
CC(C)C[C@H](NC(=O)[C@H](C)NC(=O)[C@H](CCC(=O)O)NC(=O)[C@H](Cc1ccccc1)NC(=O)[C@H](CCC(=O)O)NC(=O)[C@H](CC(C)C)NC(=O)[C@H](Cc1ccc(O)cc1)NC(=O)[C@H](CCCNC(=N)N)NC(=O)[C@H](C)NC(=O)CNC(=O)[C@H](CC(C)C)NC(=O)[C@@H](N)Cc1c[nH]c2ccccc12)C(=O)NCC(=O)N[C@@H](Cc1ccccc1)C(=O)N[C@@H](CC(C)C)C(=O)N[C@@H](CC(N)=O)C(=O)N[C@@H](CCC(=O)O)C(=O)O	IC50	nM	9750

Turning now to a further record.
Sure, the documented IC50 for CC[C@H](C)[C@H](NC(=O)[C@@H](N)CCCCN)C(=O)N1CCC[C@H]1C(=O)NCC(=O)NCC(=O)N[C@@H](C)C(=O)N[C@@H](CCSC)C(=O)N[C@@H](Cc1ccc(O)cc1)C(=O)N[C@@H](C)C(=O)N[C@@H](CC(=O)O)C(=O)N[C@@H](CC(=O)O)C(=O)N[C@H](C(=O)N[C@@H](C)C(=O)NCC(=O)N[C@@H](Cc1c[nH]c2ccccc12)C(=O)N[C@@H](CC(=O)O)C(=O)N[C@H](C(=O)O)[C@@H](C)O)[C@@H](C)O is 1430

###

biological target: DRB1*0405 (Homo sapiens, UniProt P01903+P01911, A100R/A169T/D86S/F76Y/I96L/K127E/L162R/M171V/N62H/P40V/Q125Y/R42H/S133A/S149N/S66Y/V115G/V209L/W38E); test: biochemical
metric-name: pIC50
pIC50 (log units): -log10 of the concentration in mol/L.

Consider CC[C@H](C)[C@H](NC(=O)[C@H](CC(=O)O)NC(=O)[C@@H](N)CC(C)C)C(=O)N[C@@H](CCC(=O)O)C(=O)N[C@@H](CC(C)C)C(=O)N[C@@H](CCC(N)=O)C(=O)N[C@@H](CCCCN)C(=O)N[C@H](C(=O)N[C@@H](CCC(=O)O)C(=O)N[C@@H](C)C(=O)N[C@H](C(=O)N[C@@H](CCC(N)=O)C(=O)N[C@@H](CC(C)C)C(=O)N[C@@H](C)C(=O)N[C@H](C(=O)O)[C@@H](C)O)[C@@H](C)O)[C@@H](C)O [Envelope 41-55] . Its measured pIC50 is 6.23
